# System: OVCAR-4
# TEST METHOD NOTES: NCI tumour cell line growth inhibition, 48 h
The source made the active and inactive calls. Rule as the data show it: active = GI50 up to about 1.1 µM and inactive = higher.
ENDPOINT LABEL: GI50

Below are worked cases with known answers.
| MOLECULE | GI50 |
| --- | --- |
| COC(=O)C1C(O)C(C(=O)OC)C(C)N(C)C1C (stereo not drawn) | > 100 µM (inactive) |
| CC1Cc2c(cc(N)nc2Br)NC1=O (stereo not drawn) | > 100 µM (inactive) |

From here, focus on the item given below.
Q: Requested read-out: GI50. Entry: CCOC(=O)Nc1cc2c(c(N)n1)N=C(c1ccc3ccccc3c1)CN2
Ans: 1.44 µM (inactive)
